Test system: UACC-257 melanoma
test: NCI tumour cell line growth inhibition, 48 h
experimentalReadout: GI50

Give its GI50 value. Item: O=C(Cc1cc(O)ccc1O)NO
59.9 µM

I'd like to know its GI50. The compound in question is COC(=O)C1C(C(=O)O)C2(c3ccccc3)C(=O)C1(c1ccccc1)C(c1ccc(OC)cc1)=C2c1ccc(OC)cc1 (stereo not drawn)
19.1 µM

Tell me the measured GI50 of COc1cc(/C=C2\CC3C4CCC5=CC(=O)CC[C@]5(C)C4CC[C@]3(C)C2=O)ccc1OCCN1CCCC1 (stereo partly drawn) , please.
2.5 µM

* * *

So I've got a bunch of compounds here, and I need their TGI values.
Tested on: M14 melanoma
test: NCI tumour cell line growth inhibition, 48 h

For the compound shown here, Nc1nc(N)c2cc(S(=O)(=O)c3ccc4ccccc4c3)ccc2n1 , give the reported TGI.
> 100 µM

Please give the measured TGI for this compound: Cc1nc(C)c(N2CCN(Cc3ccccc3)CC2)c(=O)[nH]1
> 100 µM

Please report the recorded TGI for CCOC(=O)c1c(-c2ccccc2)n2c(=O)cc(C)c3c(O)c(O)cc1c32 .
20.2 µM

Requested field: TGI. Item: COc1ccc(-c2nc3sccn3c2-c2ccnc(NCCNS(=O)(=O)c3ccc(C(F)(F)F)cc3)n2)cc1
3.25 µM

What does the record list as TGI for C/C(=C\[Si](C)(C)c1ccco1)C(C)(O)[C@H](C)O (stereo partly specified) ?
> 100 µM

Suppose we examine the compound Cc1cn(CC(=S)NCCc2c[nH]c3ccccc23)c(=O)[nH]c1=O ; what TGI value has been reported?
> 100 µM

Look at this compound and give its reported TGI. NC(=O)C1=C(O)[C@@]2(O)C(=O)C3=C(O)c4c(O)cccc4CC3C[C@H]2CC1=O (stereo partly specified)
13.2 µM

Bench note: what TGI did CCOC(=O)/C(=C\c1c[nH]c2ccccc12)P(=O)(OCC)OCC show?
> 100 µM

What does the record list as TGI for CCN(N=O)C1C2(CCCC2)NC(=O)C12CCCC2 (stereo unspecified) ?
> 100 µM

I would be grateful if you could share the reported TGI for NC(CCc1nc(-c2cccc([N+](=O)[O-])c2)cs1)C(=O)O (stereo unspecified) .
> 100 µM

Recorded TGI of c1ccc2cc(C3NCCc4[nH]cnc43)ccc2c1 (stereo unspecified) , please.
> 100 µM

Data request, read-out TGI, for COc1ccc(C2=C(c3ccccc3)C(=O)N3CCCC3C2)cc1 (stereo unspecified)
> 100 µM

# input compound: Cc1cc(NS(=O)(=O)c2ccc(NO)cc2)no1 ; wanted: its TGI
> 100 µM

So what's the measured TGI for this one? COc1ccc(/C(C)=C2\CCCN(Cc3ccccc3)C2)cc1
36.7 µM

For C=C(C)COc1ccc2c(c1)CCC1C2CCC2(C)C(=O)/C(=N/O)CC12 (stereo unspecified) , what is its reported TGI?
14.4 µM

Quick one: TGI of NC1=NC(c2ccc(Cl)cc2)=CC(c2cccc(Cl)c2)S1 (stereo unspecified) ?
> 100 µM
